- assayName: Differential scanning fluorimetry (protein thermal shift; TM1 Fc, TM2 Fab)
- Type: physicochemical
- testSettings: melting temperature of the Fab domain; Table 11
valueKind: TM2 (°C)

SRP2196-A10 (antibody, V domains shown) VH: EVQLVESGGGLVQPGGSLRLSCAASGFNITGYYIHWVRQAPGKGLEWVGYISPNSGATHYADSVKGRFTISADISKNTAYLQMNSLRAEDTAVHYCARDSRRYVRSWDYWGQGTLVTVSS VL: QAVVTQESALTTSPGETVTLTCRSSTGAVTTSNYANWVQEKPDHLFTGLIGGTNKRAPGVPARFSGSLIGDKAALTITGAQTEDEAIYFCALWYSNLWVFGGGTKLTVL | 68
SRP2196-A08 (antibody, V domains shown) VH: EVQLVESGGGLVQPGGSLRLSCAASGFNITGYYIHWVRQAPGKGLEWVGYISPNSGSTYKADSVKGRFTISADTSRNTAYLQMNSLRAEDTAVYYCARDSRRYVRSWDYWGQGTLVTVSS VL: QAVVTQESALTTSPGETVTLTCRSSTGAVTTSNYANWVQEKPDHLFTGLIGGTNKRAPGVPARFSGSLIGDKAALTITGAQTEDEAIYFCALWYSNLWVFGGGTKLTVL | 69
